# target.or.test.system: AEA-DA lipid probe targets in Neuro2a cells (Mus musculus)
# Sequence (Q9Z2G6 22-790): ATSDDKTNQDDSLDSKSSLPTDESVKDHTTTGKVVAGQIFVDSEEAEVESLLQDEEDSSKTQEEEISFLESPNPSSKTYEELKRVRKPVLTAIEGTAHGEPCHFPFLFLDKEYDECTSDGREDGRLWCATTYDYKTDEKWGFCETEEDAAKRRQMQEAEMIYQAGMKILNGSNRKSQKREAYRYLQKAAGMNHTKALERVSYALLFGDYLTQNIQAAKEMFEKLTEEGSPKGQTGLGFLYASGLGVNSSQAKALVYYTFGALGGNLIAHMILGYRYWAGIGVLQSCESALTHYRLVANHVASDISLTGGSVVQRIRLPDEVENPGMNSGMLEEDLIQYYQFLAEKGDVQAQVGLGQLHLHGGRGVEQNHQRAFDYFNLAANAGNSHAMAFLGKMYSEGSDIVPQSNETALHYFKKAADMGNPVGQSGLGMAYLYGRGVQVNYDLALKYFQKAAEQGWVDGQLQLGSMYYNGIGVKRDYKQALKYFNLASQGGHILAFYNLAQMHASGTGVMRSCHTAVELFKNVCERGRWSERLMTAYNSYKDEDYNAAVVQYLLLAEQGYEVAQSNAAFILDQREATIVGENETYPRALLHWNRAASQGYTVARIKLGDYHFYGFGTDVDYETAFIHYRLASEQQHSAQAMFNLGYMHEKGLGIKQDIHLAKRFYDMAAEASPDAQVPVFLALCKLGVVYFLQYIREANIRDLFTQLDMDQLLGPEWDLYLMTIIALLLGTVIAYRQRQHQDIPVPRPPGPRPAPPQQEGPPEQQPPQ
# condition.info: competitor 25 μM
assay.endpoint: SILAC ratio, Sel1l

In the examples that follow, each entry is paired with its recorded SILAC ratio, Sel1l.
>  <molecule>
CN1CCN(C(=O)c2[nH]c3ccc([N+](=O)[O-])cc3c2-c2ccccc2)CC1 [MJN228]

>  <SILAC ratio, Sel1l>
1.5

$$$$
>  <molecule>
C=CCN(C)CCCCCCOc1ccc(C(=O)c2ccc(Br)cc2)c(F)c1 [Ro 48-8071, reference compound]

>  <SILAC ratio, Sel1l>
1.2

$$$$
>  <molecule>
O=C(/C=C/c1cccnc1)NCCCCC1CCN(C(=O)c2ccccc2)CC1 [FK-866, reference compound]

>  <SILAC ratio, Sel1l>
1.4

$$$$

Below: the item to evaluate.
Fill in reported SILAC ratio, Sel1l for this entry: CN1CCN(C(=O)c2c(-c3ccccc3)c3cc([N+](=O)[O-])ccc3n2C)CC1 [KML110] 1.5
